- assay_protocol: clinical
- condition: human, plasma, po, 0.25 mg
endpoint_name: half-life (h)
Numbers only, in h.

Give the value of half-life reported for the following: "C[C@H]1O[C@@H](O[C@H]2[C@@H](O)C[C@H](O[C@H]3[C@@H](O)C[C@H](O[C@H]4CC[C@@]5(C)[C@H](CC[C@@H]6[C@@H]5C[C@@H](O)[C@]5(C)[C@@H](C7=CC(=O)OC7)CC[C@]65O)C4)O[C@@H]3C)O[C@@H]2C)C[C@H](O)[C@@H]1O" 36.8

---

- assay_protocol: clinical
- condition: human, plasma, po, 0.25 mg
endpoint_name: AUC(0-inf) (µg·h/mL)
Give bare numbers, in µg·h/mL.

Give the value of AUC(0-inf) reported for the following: C[C@H]1O[C@@H](O[C@H]2[C@@H](O)C[C@H](O[C@H]3[C@@H](O)C[C@H](O[C@H]4CC[C@@]5(C)[C@H](CC[C@@H]6[C@@H]5C[C@@H](O)[C@]5(C)[C@@H](C7=CC(=O)OC7)CC[C@]65O)C4)O[C@@H]3C)O[C@@H]2C)C[C@H](O)[C@@H]1O [Digoxin] 0.0172
